Recorded measurements of T1/2, temperature where 50% of the protein was unfolded, Buffer plus Fe2+ and aKG, one per entry
# Assay type: physicochemical
# measurement.parameters: buffer
Write it as a number; the unit °C goes unstated.

| molecule | experimental.result |
| --- | --- |
| MON-HT7: engineered oxygenase protein, amino acid sequence SEQ ID NO:34 (protein) MHAALTPLTNKYRFIDVQPLTGVLGAEITGVDLREPLDDSTWNEILDAFHTYQVIYFPGQAITNEQHIAFSRRFGPVDPVPLLKSIEGYPEVQMIRREANESGRVIGDDWHADSTFLDAPPAAVVMRAIEVPEYGGDTGFLSMYSAWETLSPTMQATIEGLNVVHSATKVFGSLYQATNWRFSNTSVKVMDVDAGDRETVHPLVVTHPVTGRRALYCNQVYCQKIQGMTDAESKSLLQFLYEHATKFDFTCRVRWKKDQVLVWDNLCTMHRSVPDYAGKFRYLTRTTVAGDKPSR | 67 |

Now look at this entry.
Per the record, MON-HT8: engineered oxygenase protein, amino acid sequence SEQ ID NO:37 (protein) MHAALTPLTNKYRFIDVQPLTGVLGAEITGVDLREPLDDSTWNEILDAFHTYQVIYFPGQAITNEQHIAFSRRFGPVDPVPILKSIEGYPEVQMIRREANESGRVIGDDWHTDSTFLDAPPAAVVMRAIEVPEYGGDTGFLSMYSAWETLSPTMQATIEGLNVVHSATKVFGSLYQATNWRFSNTSVKVMDVDAGDRETVHPLVVTHPVTGRRALYCNQVYCQKIQGMTDAESKSLLQFLYEHATKFDFTCRVRWKKDQVLVWDNLCTMHRSVPDYGNAFRYLTRTTVAGDKPSR has T1/2, temperature where 50% of the protein was unfolded, Buffer plus Fe2+ and aKG of 61
